Source listed as patent US20250333496A1.

Reported IC50 (nM), STAT3-luc reporter gene assay by item:
# assayed.target: human IL-6 (mature hIL-6) (human, UniProt P05231 30-212)
# Sequence (P05231 30-212): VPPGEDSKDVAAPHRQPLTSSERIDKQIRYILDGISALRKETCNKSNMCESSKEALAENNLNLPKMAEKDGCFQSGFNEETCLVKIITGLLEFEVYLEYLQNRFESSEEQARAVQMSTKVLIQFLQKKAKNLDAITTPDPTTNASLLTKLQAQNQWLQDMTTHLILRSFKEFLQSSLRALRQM
# test: cell-based or functional assay

| binder | IC50 (nM), STAT3-luc reporter gene assay |
| --- | --- |
| Polypeptide_56 (VHH) VHH: EVQLVESGGGLVQPGGSLKLSCTTSGRRFSEYAVGWFRQAPGKEREFVADIGEQAENTWYAHSVLGRFTISRDDAKNTVYLEMDGLKPEDTAVYYCAADKYGVGGNAQGYYDSWGQGTQVTVSS | 0.168 nM |
| Polypeptide_61 (VHH) VHH: EVQLVESGGGLVQPGGSLKLSCTTSGRRFSEYAVGWFRQAPGKEREFVADIGEQAENTWYAESVLGRFTISRDDAKNTVYLEMDGLKPEDTAVYYCAADSYGVGGNAQGYYDSWGQGTQVTVSS | 0.054 nM |
| Polypeptide_19 (VHH, VHH_1.11 with C-terminal His tag extension E1; also called [VHH_1.11]-E1) VHH: QLQLVESGGGWVQPGGSLKLSCTTSGRTFSSYAVGWFRQAPGKEREFVADIGENADNTWYAHSVKGRFTISRDNAKNTVYLQMNSLKPEDTAVYYCAADSYGVGGGAQGYYDSWGQGTQVTVSS | 0.185 nM |
| Polypeptide_51 (VHH) VHH: EVQLVESGGGWVQPGGSLKLSCTTSGRRFSEYAVGWFRQAPGKEREFVADIGEQAENTWYAESVLGRFTISRDDAKNTVYLEMDGLKPEDTAVYYCAADKYGVGGNAQGYYDSWGQGTQVTVSS | 0.053 nM |
| Polypeptide_57 (VHH) VHH: EVQLVESGGGLVQPGGSLKLSCTTSGRRFSEYAVGWFRQAPGKEREFVADIGEQAENTWYAESVKGRFTISRDDAKNTVYLEMDGLKPEDTAVYYCAADKYGVGGNAQGYYDSWGQGTQVTVSS | 0.08 nM |
| Polypeptide_54 (VHH) VHH: EVQLVESGGGLVQPGGSLKLSCTTSGRRFSEYAVGWFRQAPGKEREFVADIGENAENTWYAESVLGRFTISRDDAKNTVYLEMDGLKPEDTAVYYCAADKYGVGGNAQGYYDSWGQGTQVTVSS | 0.15 nM |
